molecular target: Recombinant human soluble BACE1 catalytic domain (Homo sapiens (Human), UniProt P56817); test: BACE1 HTRF FRET Assay; details: Ki calculated from IC50 using the Cheng-Prusoff equation; QSY7-APPswe-Eu substrate, pH 5.0; read-out: BACE-1 Ki
Sequence (P56817 75-416): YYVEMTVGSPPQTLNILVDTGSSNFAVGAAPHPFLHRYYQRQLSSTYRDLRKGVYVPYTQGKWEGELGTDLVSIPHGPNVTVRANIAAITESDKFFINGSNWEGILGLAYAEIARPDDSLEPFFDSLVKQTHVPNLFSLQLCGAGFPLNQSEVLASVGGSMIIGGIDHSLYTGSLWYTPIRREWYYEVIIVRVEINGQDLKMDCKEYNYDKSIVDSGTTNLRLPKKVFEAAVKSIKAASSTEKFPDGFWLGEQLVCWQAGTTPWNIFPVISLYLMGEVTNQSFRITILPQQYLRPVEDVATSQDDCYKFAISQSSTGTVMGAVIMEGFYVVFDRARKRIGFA
just bin them by Ki: lowest = under 20 nM, middle = from 20 nM up to 400 nM, highest = 400 nM and over

Band assignment needed for CC1(C)C[C@@H]2[C@](c3cc(Oc4cc(F)cnc4F)ccc3F)(CO1)NC(=N)C(C)(C)S2(=O)=O [Example 21] please.
lowest

====

Endpoint: log10(Ki). System: UniProt Q9Y5Z0. Items follow.
// stored as log10 of Ki expressed in nM

These solved cases illustrate the format of a correct answer.
[
  {
    "compound": "CC1(C)C[C@@H]2[C@](c3cc(Oc4ncccc4F)ccc3F)(CO1)NC(=N)C(C)(C)S2(=O)=O [Example 18]",
    "assay-result": 1.63
  },
  {
    "compound": "COc1ccc(F)c([C@]23CO[C@@H](c4ccc(F)cc4)C[C@H]2S(=O)(=O)C(C)(C)C(=N)N3)c1 [Example 12]",
    "assay-result": 1.98
  }
]

Which log10(Ki) value is on record for CC1(C)C[C@@H]2[C@](c3cc(OC4CCC4)ccc3F)(CO1)NC(=N)C(C)(C)S2(=O)=O [Example 24] ?
2.04

Which log10(Ki) value is on record for CC1(C)C[C@@H]2[C@](c3cc(Oc4ncc(F)cc4F)ccc3F)(CO1)NC(=N)C(C)(C)S2(=O)=O [Example 20] ?
2.01

====

target: Recombinant human soluble BACE1 catalytic domain (Homo sapiens (Human), UniProt P56817); assay: BACE1 HTRF FRET Assay; details: Ki calculated from IC50 using the Cheng-Prusoff equation; QSY7-APPswe-Eu substrate, pH 5.0; read-out: BACE-1 Ki
pKi: −log10 of the molar value.
Classification field: enter Satisfied for pKi values not below 7, Not satisfied for values below it.

Solved entries:
[
  {
    "chemical-structure": "CC1(C)C[C@@H]2[C@](c3cc(Oc4ncc(F)cc4F)ccc3F)(CO1)NC(=N)C(C)(C)S2(=O)=O",
    "assigned-category": "Satisfied"
  },
  {
    "chemical-structure": "COc1ccc(F)c([C@]23CO[C@@H](CO)C[C@H]2S(=O)(=O)C(C)(C)C(=N)N3)c1",
    "assigned-category": "Not satisfied"
  },
  {
    "chemical-structure": "CC1(C)C[C@@H]2[C@](c3ccccc3F)(CO1)NC(=N)C(C)(C)S2(=O)=O",
    "assigned-category": "Not satisfied"
  },
  {
    "chemical-structure": "C[C@H]1C[C@@H]2[C@](c3cc(Br)ccc3F)(CO1)NC(=N)C(C)(C)S2(=O)=O",
    "assigned-category": "Not satisfied"
  },
  {
    "chemical-structure": "CC1(C)C[C@@H]2[C@](c3cc(OC4CCC4)ccc3F)(CO1)NC(=N)C(C)(C)S2(=O)=O",
    "assigned-category": "Not satisfied"
  },
  {
    "chemical-structure": "C[C@H]1C[C@@H]2[C@](c3cc(Oc4cc(C#N)ccn4)ccc3F)(CO1)NC(=N)C(C)(C)S2(=O)=O",
    "assigned-category": "Satisfied"
  },
  {
    "chemical-structure": "CC1(C)C[C@@H]2[C@](c3cc(Oc4ncccc4F)ccc3F)(CO1)NC(=N)C(C)(C)S2(=O)=O",
    "assigned-category": "Satisfied"
  },
  {
    "chemical-structure": "C[C@H]1C[C@@H]2[C@](c3cc(Oc4ncc(F)cc4F)ccc3F)(CO1)NC(=N)C(C)(C)S2(=O)=O",
    "assigned-category": "Satisfied"
  },
  {
    "chemical-structure": "CC(C)COc1ccc(F)c([C@]23COC(C)(C)C[C@H]2S(=O)(=O)C(C)(C)C(=N)N3)c1",
    "assigned-category": "Not satisfied"
  },
  {
    "chemical-structure": "CC1(C)C(=N)N[C@@]2(c3cc(Oc4cc(C#N)ccn4)ccc3F)CO[C@@H](c3ccc(F)cc3)C[C@H]2S1(=O)=O",
    "assigned-category": "Satisfied"
  }
]

Is the recorded value of pKi equal to or greater than 7 for this compound? C[C@H]1C[C@@H]2[C@](c3ccccc3F)(CO1)NC(=N)C(C)(C)S2(=O)=O
Not satisfied

Is the recorded value of pKi equal to or greater than 7 for this compound? COc1ccc(F)c([C@]23CO[C@@H](C)C[C@H]2S(=O)(=O)C(C)(C)C(=N)N3)c1
Not satisfied

Is the recorded value of pKi equal to or greater than 7 for this compound? CC1(C)C(=N)N[C@@]2(c3cc(Oc4ncccc4F)ccc3F)CO[C@@H](c3ccc(F)cc3)C[C@H]2S1(=O)=O
Satisfied

Is the recorded value of pKi equal to or greater than 7 for this compound? CC(C)COc1ccc(F)c([C@]23CO[C@@H](C)C[C@H]2S(=O)(=O)C(C)(C)C(=N)N3)c1
Not satisfied

====

Item-by-item account of Ki
target: purified human autoBACE-2 (Homo sapiens (Human))
Sequence (Q9Y5Z0 63-518): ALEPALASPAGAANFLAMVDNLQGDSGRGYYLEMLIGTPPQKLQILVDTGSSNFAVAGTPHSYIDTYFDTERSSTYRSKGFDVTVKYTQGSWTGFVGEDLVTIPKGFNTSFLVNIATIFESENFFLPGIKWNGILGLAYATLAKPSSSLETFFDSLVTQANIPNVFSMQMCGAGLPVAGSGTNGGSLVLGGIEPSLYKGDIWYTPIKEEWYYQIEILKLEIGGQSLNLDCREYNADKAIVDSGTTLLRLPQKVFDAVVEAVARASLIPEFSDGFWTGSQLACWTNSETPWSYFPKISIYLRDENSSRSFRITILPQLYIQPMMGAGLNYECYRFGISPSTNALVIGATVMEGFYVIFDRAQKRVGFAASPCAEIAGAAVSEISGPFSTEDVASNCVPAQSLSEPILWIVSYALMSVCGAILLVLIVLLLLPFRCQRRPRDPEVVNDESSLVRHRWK
Numeric only. Scale: nM

[
  {
    "chemical-structure": "C[C@@H]1C[C@@H]2[C@](c3cc(OCC4CC4)ccc3F)(CO1)NC(=N)C(C)(C)S2(=O)=O",
    "study-system": "purified human autoBACE-2 (Homo sapiens (Human))",
    "unit-string": "nM",
    "Ki": 1180
  }
]

Lab request: please report Ki under test system purified human autoBACE-2 (Homo sapiens (Human)) for CC1(C)C(=N)N[C@@]2(c3cc(Oc4ncccc4F)ccc3F)CO[C@@H](c3ccc(F)cc3)C[C@H]2S1(=O)=O
1.9

Lab request: please report Ki under test system purified human autoBACE-2 (Homo sapiens (Human)) for C[C@H]1C[C@@H]2[C@](c3cc(OCC4CC4)ccc3F)(CO1)NC(=N)C(C)(C)S2(=O)=O
11.4

Lab request: please report Ki under test system purified human autoBACE-2 (Homo sapiens (Human)) for CC(C)COc1ccc(F)c([C@]23COC(C)(C)C[C@H]2S(=O)(=O)C(C)(C)C(=N)N3)c1
66.7

Lab request: please report Ki under test system purified human autoBACE-2 (Homo sapiens (Human)) for CC1(C)C(=N)N[C@@]2(c3cc(Oc4cc(C#N)ccn4)ccc3F)CO[C@@H](c3ccc(F)cc3)C[C@H]2S1(=O)=O
19.8

Lab request: please report Ki under test system purified human autoBACE-2 (Homo sapiens (Human)) for C[C@H]1C[C@@H]2[C@](c3cc(Oc4ncc(F)cc4F)ccc3F)(CO1)NC(=N)C(C)(C)S2(=O)=O
28.9

These measurements were taken from patent US10689401B2.
